- Test system: seven human 14-3-3 isoforms
- Procedure text: Affinities averaged or compared across the 14-3-3 family (ΔΔGav, KD ratios, affinity maps)
- Format: binding
- Experimental setup: Figure 4 panel c; 14-3-3τ
Starred links: 1 amine or outer side, 2 acyl side, 3 side chain; linkers in the order of their positions; H or OH if unused. Non-standard residues stand in square brackets, D forms with d. Residues, ends and D or L forms follow the SMILES beside them. *: point of attachment. X1 = O=C(CCCC[C@@H]1SC[C@@H]2NC(=O)N[C@@H]21)NCCCOCCOCCOCCCN*; pT = C[C@@H](OP(=O)(O)O)[C@H](N)C(=O)O; Suc = O=C(CCC(=O)[*:2])[*:1]
Quantity: KD ratios, compared to 14-3-3γ, 14-3-3τ
Lab note: jot down the number only; don't add units.

// returns reported KD ratios, compared to 14-3-3γ, 14-3-3τ for input `CC(C)C[C@H](NC(=O)[C@H](CCC(N)=O)NC(=O)[C@@H](NC(=O)[C@H](CCC(=O)O)NC(=O)[C@H](CCCNC(=N)N)NC(=O)[C@H](CCCNC(=N)N)NC(=O)[C@@H](NC(=O)[C@H](CCCNC(=N)N)NC(=O)[C@H](CO)NC(=O)[C@H](CO)NC(=O)CCC(=O)NCCCOCCOCCOCCCNC(=O)CCCC[C@@H]1SC[C@@H]2NC(=O)N[C@@H]21)[C@@H](C)O)[C@@H](C)OP(=O)(O)O)C(=O)O` 3.87

And then CC(C)[C@H](NC(=O)[C@H](CCC(=O)O)NC(=O)[C@@H](NC(=O)[C@H](CCC(=O)O)NC(=O)[C@H](CCCNC(=N)N)NC(=O)[C@H](CCCNC(=N)N)NC(=O)[C@H](CCCNC(=N)N)NC(=O)[C@@H]1CCCN1C(=O)[C@H](CCCCN)NC(=O)[C@H](CO)NC(=O)CCC(=O)NCCCOCCOCCOCCCNC(=O)CCCC[C@@H]1SC[C@@H]2NC(=O)N[C@@H]21)[C@@H](C)OP(=O)(O)O)C(=O)O [pHPV35E6T-6R] ({X1-Suc}-SKPRRRE[pT]EV-OH) , what is it? 2.72

And then `CC(C)C[C@H](NC(=O)[C@H](CCCNC(=N)N)NC(=O)CCC(=O)NCCCOCCOCCOCCCNC(=O)CCCC[C@@H]1SC[C@@H]2NC(=O)N[C@@H]21)C(=O)N[C@@H](CCC(N)=O)C(=O)N[C@@H](CCCNC(=N)N)C(=O)N[C@@H](CCCNC(=N)N)C(=O)N[C@@H](CCCNC(=N)N)C(=O)N[C@@H](CCC(=O)O)C(=O)N[C@H](C(=O)N[C@@H](CCC(N)=O)C(=O)N[C@H](C(=O)O)C(C)C)[C@@H](C)OP(=O)(O)O` , what is it? 3.44

And then CC(C)[C@H](NC(=O)[C@H](C)NC(=O)[C@@H](NC(=O)[C@H](CCC(=O)O)NC(=O)[C@H](CCCNC(=N)N)NC(=O)[C@H](CCCNC(=N)N)NC(=O)[C@@H](NC(=O)[C@@H]1CCCN1C(=O)[C@H](CCCCN)NC(=O)[C@H](CO)NC(=O)CCC(=O)NCCCOCCOCCOCCCNC(=O)CCCC[C@@H]1SC[C@@H]2NC(=O)N[C@@H]21)[C@@H](C)O)[C@@H](C)OP(=O)(O)O)C(=O)O [pHPV35E6E-1A] ({X1-Suc}-SKPTRRE[pT]AV-OH) , what is it? 2.31

And then CC(C)C[C@H](NC(=O)[C@H](C)NC(=O)[C@@H](NC(=O)[C@H](CCC(=O)O)NC(=O)[C@H](CCCNC(=N)N)NC(=O)[C@H](CCCNC(=N)N)NC(=O)[C@H](CCCNC(=N)N)NC(=O)[C@H](CO)NC(=O)[C@H](CCCNC(=N)N)NC(=O)[C@H](CO)NC(=O)CCC(=O)NCCCOCCOCCOCCCNC(=O)CCCC[C@@H]1SC[C@@H]2NC(=O)N[C@@H]21)[C@@H](C)OP(=O)(O)O)C(=O)O [pHPV33E6] ({X1-Suc}-SRSRRRE[pT]AL-OH) , what is it? 3.74

* * *

- Test system: seven human 14-3-3 isoforms
- Procedure text: Affinities averaged or compared across the 14-3-3 family (ΔΔGav, KD ratios, affinity maps)
- Assay type: binding
- Experimental setup: Figure 4 panel c; 14-3-3β
Starred links: 1 amine or outer side, 2 acyl side, 3 side chain; linkers in the order of their positions; H or OH if unused. Non-standard residues stand in square brackets, D forms with d. Residues, ends and D or L forms follow the SMILES beside them. *: point of attachment. X1 = O=C(CCCC[C@@H]1SC[C@@H]2NC(=O)N[C@@H]21)NCCCOCCOCCOCCCN*; pT = C[C@@H](OP(=O)(O)O)[C@H](N)C(=O)O; Suc = O=C(CCC(=O)[*:2])[*:1]
Quantity: KD ratios, compared to 14-3-3γ, 14-3-3β
Lab note: jot down the number only; don't add units.

// returns reported KD ratios, compared to 14-3-3γ, 14-3-3β for input `CC(C)C[C@H](NC(=O)[C@H](CCCNC(=N)N)NC(=O)CCC(=O)NCCCOCCOCCOCCCNC(=O)CCCC[C@@H]1SC[C@@H]2NC(=O)N[C@@H]21)C(=O)N[C@@H](CCC(N)=O)C(=O)N[C@@H](CCCNC(=N)N)C(=O)N[C@@H](CCCNC(=N)N)C(=O)N[C@@H](CCCNC(=N)N)C(=O)N[C@@H](CCC(=O)O)C(=O)N[C@H](C(=O)N[C@@H](CCC(N)=O)C(=O)N[C@H](C(=O)O)C(C)C)[C@@H](C)OP(=O)(O)O` 3.84

And then CC(C)[C@H](NC(=O)[C@H](C)NC(=O)[C@@H](NC(=O)[C@H](CCC(=O)O)NC(=O)[C@H](CCCNC(=N)N)NC(=O)[C@H](CCCNC(=N)N)NC(=O)[C@@H](NC(=O)[C@@H]1CCCN1C(=O)[C@H](CCCCN)NC(=O)[C@H](CO)NC(=O)CCC(=O)NCCCOCCOCCOCCCNC(=O)CCCC[C@@H]1SC[C@@H]2NC(=O)N[C@@H]21)[C@@H](C)O)[C@@H](C)OP(=O)(O)O)C(=O)O [pHPV35E6E-1A] ({X1-Suc}-SKPTRRE[pT]AV-OH) , what is it? 2.17

And then `CC(C)C[C@H](NC(=O)[C@H](CCC(N)=O)NC(=O)[C@@H](NC(=O)[C@H](CCC(=O)O)NC(=O)[C@H](CCCNC(=N)N)NC(=O)[C@H](CCCNC(=N)N)NC(=O)[C@@H](NC(=O)[C@H](CCCNC(=N)N)NC(=O)[C@H](CO)NC(=O)[C@H](CO)NC(=O)CCC(=O)NCCCOCCOCCOCCCNC(=O)CCCC[C@@H]1SC[C@@H]2NC(=O)N[C@@H]21)[C@@H](C)O)[C@@H](C)OP(=O)(O)O)C(=O)O` , what is it? 4.27

And then CC(C)[C@H](NC(=O)[C@H](CCC(=O)O)NC(=O)[C@@H](NC(=O)[C@H](CCC(=O)O)NC(=O)[C@H](CCCNC(=N)N)NC(=O)[C@H](CCCNC(=N)N)NC(=O)[C@H](CCCNC(=N)N)NC(=O)[C@@H]1CCCN1C(=O)[C@H](CCCCN)NC(=O)[C@H](CO)NC(=O)CCC(=O)NCCCOCCOCCOCCCNC(=O)CCCC[C@@H]1SC[C@@H]2NC(=O)N[C@@H]21)[C@@H](C)OP(=O)(O)O)C(=O)O [pHPV35E6T-6R] ({X1-Suc}-SKPRRRE[pT]EV-OH) , what is it? 2.51

And then CC(C)C[C@H](NC(=O)[C@H](C)NC(=O)[C@@H](NC(=O)[C@H](CCC(=O)O)NC(=O)[C@H](CCCNC(=N)N)NC(=O)[C@H](CCCNC(=N)N)NC(=O)[C@H](CCCNC(=N)N)NC(=O)[C@H](CO)NC(=O)[C@H](CCCNC(=N)N)NC(=O)[C@H](CO)NC(=O)CCC(=O)NCCCOCCOCCOCCCNC(=O)CCCC[C@@H]1SC[C@@H]2NC(=O)N[C@@H]21)[C@@H](C)OP(=O)(O)O)C(=O)O [pHPV33E6] ({X1-Suc}-SRSRRRE[pT]AL-OH) , what is it? 4.31

* * *

- Test system: 14-3-3σ (Homo sapiens, UniProt P31947)
- Construct: cDNAs encoding other full-length 14-3-3 isoforms β, τ, η, and σ were obtained as codon-optimized
- Sequence (P31947 whole entry, canonical isoform): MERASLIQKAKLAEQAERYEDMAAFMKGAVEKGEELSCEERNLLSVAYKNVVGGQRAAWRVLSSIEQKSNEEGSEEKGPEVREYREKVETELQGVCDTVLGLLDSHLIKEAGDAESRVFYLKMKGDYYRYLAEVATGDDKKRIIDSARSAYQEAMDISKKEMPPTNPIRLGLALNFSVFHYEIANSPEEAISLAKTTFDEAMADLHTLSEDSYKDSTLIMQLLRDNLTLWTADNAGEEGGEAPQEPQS
- Procedure text: biochemical
Starred links: 1 amine or outer side, 2 acyl side, 3 side chain; linkers in the order of their positions; H or OH if unused. Non-standard residues stand in square brackets, D forms with d. Residues, ends and D or L forms follow the SMILES beside them. *: point of attachment. X1 = O=C(CCCC[C@@H]1SC[C@@H]2NC(=O)N[C@@H]21)NCCCOCCOCCOCCCN*; pT = C[C@@H](OP(=O)(O)O)[C@H](N)C(=O)O; Suc = O=C(CCC(=O)[*:2])[*:1]
Please provide measured Kd for the entries that follow.
Enter your answer as a number in µM; do not include the unit.

// returns reported Kd for input CC(C)[C@H](NC(=O)[C@H](C)NC(=O)[C@@H](NC(=O)[C@H](CCC(=O)O)NC(=O)[C@H](CCCNC(=N)N)NC(=O)[C@H](CCCNC(=N)N)NC(=O)[C@H](CCCNC(=N)N)NC(=O)[C@@H]1CCCN1C(=O)[C@H](CCCCN)NC(=O)[C@H](CO)NC(=O)CCC(=O)NCCCOCCOCCOCCCNC(=O)CCCC[C@@H]1SC[C@@H]2NC(=O)N[C@@H]21)[C@@H](C)OP(=O)(O)O)C(=O)O [pHPV35E6T-6R, E-1A] ({X1-Suc}-SKPRRRE[pT]AV-OH) 18.9

And then CC(C)[C@H](NC(=O)[C@H](C)NC(=O)[C@@H](NC(=O)[C@H](CCC(=O)O)NC(=O)[C@H](CCCNC(=N)N)NC(=O)[C@H](CCCNC(=N)N)NC(=O)[C@@H](NC(=O)[C@@H]1CCCN1C(=O)[C@H](CCCCN)NC(=O)[C@H](CO)NC(=O)CCC(=O)NCCCOCCOCCOCCCNC(=O)CCCC[C@@H]1SC[C@@H]2NC(=O)N[C@@H]21)[C@@H](C)O)[C@@H](C)OP(=O)(O)O)C(=O)O [pHPV35E6E-1A] ({X1-Suc}-SKPTRRE[pT]AV-OH) , what is it? 44.1

And then CC(C)C[C@H](NC(=O)[C@H](C)NC(=O)[C@@H](NC(=O)[C@H](CCC(=O)O)NC(=O)[C@H](CCCNC(=N)N)NC(=O)[C@H](CCCNC(=N)N)NC(=O)[C@H](CCCNC(=N)N)NC(=O)[C@H](CO)NC(=O)[C@H](CCCNC(=N)N)NC(=O)[C@H](CO)NC(=O)CCC(=O)NCCCOCCOCCOCCCNC(=O)CCCC[C@@H]1SC[C@@H]2NC(=O)N[C@@H]21)[C@@H](C)OP(=O)(O)O)C(=O)O [pHPV33E6] ({X1-Suc}-SRSRRRE[pT]AL-OH) , what is it? 6.77

And then CC(C)C[C@H](NC(=O)[C@H](CCCNC(=N)N)NC(=O)CCC(=O)NCCCOCCOCCOCCCNC(=O)CCCC[C@@H]1SC[C@@H]2NC(=O)N[C@@H]21)C(=O)N[C@@H](CCC(N)=O)C(=O)N[C@@H](CCCNC(=N)N)C(=O)N[C@@H](CCCNC(=N)N)C(=O)N[C@@H](CCCNC(=N)N)C(=O)N[C@@H](CCC(=O)O)C(=O)N[C@H](C(=O)N[C@@H](CCC(N)=O)C(=O)N[C@H](C(=O)O)C(C)C)[C@@H](C)OP(=O)(O)O [pHPV18E6] , what is it? 139

Attribution: paper PMC7961048
